From: PubChem BioAssay

- tested.system: NADPH oxidase 4 (Homo sapiens) (UniProt Q9NPH5)
- Sequence (Q9NPH5 whole entry, looked up): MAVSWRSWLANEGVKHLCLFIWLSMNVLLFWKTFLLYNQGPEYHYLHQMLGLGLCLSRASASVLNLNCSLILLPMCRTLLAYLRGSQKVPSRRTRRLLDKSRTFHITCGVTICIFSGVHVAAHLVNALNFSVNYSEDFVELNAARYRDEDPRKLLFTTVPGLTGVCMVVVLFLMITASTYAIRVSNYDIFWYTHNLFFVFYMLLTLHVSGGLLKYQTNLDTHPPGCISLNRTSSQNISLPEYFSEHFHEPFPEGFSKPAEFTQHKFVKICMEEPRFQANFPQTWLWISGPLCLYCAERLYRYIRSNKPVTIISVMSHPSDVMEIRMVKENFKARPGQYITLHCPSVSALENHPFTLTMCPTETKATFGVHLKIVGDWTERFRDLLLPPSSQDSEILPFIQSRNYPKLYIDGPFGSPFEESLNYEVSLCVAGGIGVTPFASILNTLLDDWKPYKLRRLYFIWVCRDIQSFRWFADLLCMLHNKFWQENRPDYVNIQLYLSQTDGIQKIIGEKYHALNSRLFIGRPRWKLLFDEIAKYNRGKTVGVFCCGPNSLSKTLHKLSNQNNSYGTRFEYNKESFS
- procedure.details: NOX4-dependent H2O2 signal modulators, primary screen, NOX inhibitor project, cell-based, HEK293-NOX4, tetracycline-induced, Amplex Red fluorescence (AID 1160)
- conditions: 45 min, higher = more signal, called active from +8 up or from −8 down

molecule	z-score
CC1CC/C=C\[C@H]2OC34C=CCN(c5ccc(Cl)cc5)C(=O)[C@H]3N(CCCO)C(=O)[C@]4(C)C2C(=O)O1 (stereo partly drawn)	-1.22
C=CCC(OC(C)=O)[C@@H]1[C@@H](N(Cc2cccc3ccccc23)C(=O)c2cccc3ccccc23)c2cc(OCCCO)ccc2N1C(=O)Cc1ccc2ccccc2c1 (stereo partly drawn)	-0.859
N#Cc1ccc(C(O)C2C=CC3C(=O)NC(=O)C3N2Nc2ccccn2)cc1 (stereo not drawn)	-2.92

###

- procedure.details: MM1S cell viability effects, profiling panel, calcein-AM fluorescence, 48 h, basal (AID 1165);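 also: viability of MM1S multiple myeloma cells under basal unstimulated conditions; test concentration not given here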
- conditions: higher = more signal
endpoint.name: z-score

                                   compound  readout_value
0  COC(=O)[C@@]1(Cc2ccccc2)[C@H]2c3cc(C(=O)N4CCCC4)n(Cc4ccc(C(F)(F)F)nc4)c3C[C@H]2CN1C(=O)c1ccccc1         -0.331
1  NC(=O)[C@@]1(CCS(=O)(=O)c2ccccc2)COC(c2ccc(OCCCO)cc2)=N1        -0.0256
2  N#Cc1ccc(C(O)C2C=CC3C(=O)N(c4ccccc4)C(=O)C3N2Nc2ccc([N+](=O)[O-])cc2)cc1 (centres undefined)        -0.0671
3  [N-]=[N+]=Nc1ccccc1[C@@H]1OC(c2ccc(OCCCO)cc2)=N[C@]1(Cc1ccccc1)C(N)=O         -0.835

###

- tested.system: Focal adhesion kinase 1 (Homo sapiens) (UniProt Q05397)
- Sequence (Q05397 whole entry, looked up): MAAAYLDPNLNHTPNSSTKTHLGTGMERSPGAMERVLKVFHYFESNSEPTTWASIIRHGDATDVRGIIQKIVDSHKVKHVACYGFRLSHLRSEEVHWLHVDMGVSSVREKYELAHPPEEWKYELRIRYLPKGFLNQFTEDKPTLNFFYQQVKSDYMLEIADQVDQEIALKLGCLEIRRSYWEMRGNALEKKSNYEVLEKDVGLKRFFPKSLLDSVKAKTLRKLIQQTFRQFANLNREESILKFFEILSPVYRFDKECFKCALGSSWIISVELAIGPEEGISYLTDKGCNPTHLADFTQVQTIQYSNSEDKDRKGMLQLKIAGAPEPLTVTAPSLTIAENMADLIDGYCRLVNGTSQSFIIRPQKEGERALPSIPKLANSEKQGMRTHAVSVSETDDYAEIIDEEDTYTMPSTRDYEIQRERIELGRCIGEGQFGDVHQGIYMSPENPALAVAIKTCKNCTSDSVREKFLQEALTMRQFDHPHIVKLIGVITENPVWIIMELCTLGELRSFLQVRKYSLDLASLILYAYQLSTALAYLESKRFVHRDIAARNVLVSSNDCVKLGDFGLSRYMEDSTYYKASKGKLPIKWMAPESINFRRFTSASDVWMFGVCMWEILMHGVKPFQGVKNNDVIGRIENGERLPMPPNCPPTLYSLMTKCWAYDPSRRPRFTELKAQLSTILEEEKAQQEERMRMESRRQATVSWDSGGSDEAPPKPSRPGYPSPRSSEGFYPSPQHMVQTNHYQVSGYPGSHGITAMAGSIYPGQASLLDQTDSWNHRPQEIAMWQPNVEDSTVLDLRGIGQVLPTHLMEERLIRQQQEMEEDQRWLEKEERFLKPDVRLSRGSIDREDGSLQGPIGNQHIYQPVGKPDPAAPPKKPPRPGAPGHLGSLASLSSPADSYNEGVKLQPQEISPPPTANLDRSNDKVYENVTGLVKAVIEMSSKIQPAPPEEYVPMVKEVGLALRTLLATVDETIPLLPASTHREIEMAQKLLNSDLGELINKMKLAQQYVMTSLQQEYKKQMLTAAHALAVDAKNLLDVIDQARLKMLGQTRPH
- procedure.details: small-molecule microarray binders of FAK, primary screen, biochemical, 635/667 nm fluorescence, BSA, DTT (AID 1130);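 also: composite of spot emission at 667 nm and signal to noise over triplicate slides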
- conditions: PTK2 binding, 635 nm fluorescence, higher = more signal

structure.smiles.string	composite z-score
CC(C)CNC(=O)[C@@]1(C)c2ccccc2C(=O)N(Cc2cc(F)cc(C(F)(F)F)c2)[C@H]1c1ccc(CO)cc1	0.0301
COc1ccc([Si](C)(C)[C@H]2[C@H](CCO)O[C@@]3(C(=O)N(Cc4ccc(N5CCOC5=O)cc4)c4ccccc43)[C@@H]2C)cc1	0.5
COCCOC(=O)N1C(=O)[C@@]2(c3cc(C#CCCO)ccc31)[C@H](c1ccc(O)cc1)N1[C@H](c3ccccc3)[C@H](c3ccccc3)OC(=O)[C@H]1[C@@H]2C(=O)N1CCc2cc(OC)c(OC)cc2C1	0.514

###

- System: Plasmodium falciparum Sir2 (PF13_0152, Sir2A)
- procedure.details: pfSir2 binders on small-molecule microarrays, primary screen, biochemical, small-molecule microarray, 635 nm fluorescence (AID 1098);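 also: score merges spot fluorescence intensity with its signal-to-noise ratio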
- conditions: small-molecule microarray binding, fluorescence 635 nm; higher = more signal
Measured composite z-score accompanies every entry in the list below.

compound	composite z-score
COCCOC(=O)N1C(=O)[C@@]2(c3cc(C#Cc4ccc(OC)cc4)ccc31)[C@H](C(=O)Nc1nc3ccccc3s1)[C@H]1C(=O)O[C@H](c3ccccc3)[C@H](c3ccccc3)N1[C@@H]2c1ccccc1OCCO	0.655
COc1ccc([Si](C)(C)[C@H]2[C@H](CCn3cc([C@H](O)c4ccccc4)nn3)O[C@@]3(C(=O)N(C)c4c(Br)cc(C)cc43)[C@@H]2C)cc1	-0.34
C=CCC(OC(C)=O)[C@@H]1[C@@H](N(Cc2cccc3ccccc23)C(=O)c2cccc3ccccc23)c2cc(OCCCO)ccc2N1C(=O)Cc1ccc2ccccc2c1 (stereo not given in full)	-0.181
CCOC(=O)C1=CC[C@@H](c2ccccc2Cl)N(S(=O)(=O)c2ccc(C)cc2)[C@H]1c1cccc(OC)c1	0.662
CN(C)C(=O)[C@@]1(CCS(=O)(=O)c2ccccc2)N=C(c2ccc(OCCCO)cc2)O[C@H]1c1ccccc1N=[N+]=[N-]	1.44
C=C(/C(=C/C[C@@H](OC(C)=O)c1ccccc1OCCO)c1cc(C(=O)OC)ccc1OC)C(C)C	1.08
COc1cc2c(cc1O)C(C1CC1)N(Cc1ccc([N+](=O)[O-])o1)CC2 (stereo not given)	1.53
NC(=O)NCC#Cc1ccc2c(c1)[C@]1(C(=O)N2)[C@H](C(=O)N2CCCCCCC2)[C@H]2C(=O)O[C@H](c3ccccc3)[C@H](c3ccccc3)N2[C@@H]1c1ccc(O)cc1	1.63
COc1ccc(CCNC(=O)[C@@]2(C)c3ccccc3C(=O)N(Cc3cc(C(F)(F)F)cc(C(F)(F)F)c3)[C@H]2c2ccc(CO)cc2)cc1	0.569
CCOC(=O)C1=C(C(=O)OCC)N(S(=O)(=O)CC[Si](C)(C)C)[C@H](c2ccccc2)CC1	0.461
[N-]=[N+]=NCc1ccccc1C[C@]1(C(=O)O)COC(c2ccc(OCCCO)cc2)=N1	0.991
N#Cc1ccc(C(O)C2C=CC3C(=O)NC(=O)C3N2Nc2ccccn2)cc1 (stereo not given)	0.348
C=CCC(OC(C)=O)[C@@H]1[C@@H](N(Cc2cc3ccccc3o2)C(=O)Cc2ccc(OC)cc2)c2cc(OCCCO)ccc2N1C(=O)Cc1ccc(OC)cc1 (stereo not given in full)	-0.193
CCC(CC)C(O)C1C=CC2C(=O)N(C)C(=O)C2N1N1CCCCC1 (stereo not given)	0.669
C=CCOC(=O)[C@H]1[C@@H]2C(=O)O[C@@H](c3ccccc3)[C@@H](c3ccccc3)N2[C@@H](c2ccc(OCCOC(=O)[C@@H]3C[C@@H]4C(=O)N[C@@H](Cc5ccccc5)C(=O)N4[C@@H]3c3ccc(O)cc3)cc2)[C@]12C(=O)Nc1ccccc12	1.34
CN1C=C(C(=O)OCCS(C)(=O)=O)C(C(=O)OCCS(C)(=O)=O)=CC(CCCO)=CC1c1ccc(CN2CCCC2)cc1 (stereo not given)	0.867
CCOC(=O)C[C@H]1[C@H](OC(=O)c2ccc(-c3ccccc3)cc2)[C@@H](NC(=O)CC(C)C)c2cc(OCCCO)ccc2N1C(=O)Cc1ccc(OC)cc1	-0.146
Cc1c(-c2ccc(-c3ccc(Cl)c(Cl)c3)o2)nc(-c2ccccc2)c2c1CO[Si]2(C(C)C)C(C)C	0.872
COC(=O)[C@@]1(Cc2ccc(F)cc2)[C@H]2c3cc(C(=O)N(C)C)n(CCN4CCOCC4)c3C[C@H]2CN1C(=O)c1ccccc1	0.756
C[N+](C)(C)CCCCCCNC(=O)[C@H]1C[C@H]2C(=O)NCC(=O)N2[C@H]1c1cccc(OCCO)c1	1.75
